This listing pairs substances with measured pEC50.
Target: human GcgR (Homo sapiens)
Sequence (P47871 26-477): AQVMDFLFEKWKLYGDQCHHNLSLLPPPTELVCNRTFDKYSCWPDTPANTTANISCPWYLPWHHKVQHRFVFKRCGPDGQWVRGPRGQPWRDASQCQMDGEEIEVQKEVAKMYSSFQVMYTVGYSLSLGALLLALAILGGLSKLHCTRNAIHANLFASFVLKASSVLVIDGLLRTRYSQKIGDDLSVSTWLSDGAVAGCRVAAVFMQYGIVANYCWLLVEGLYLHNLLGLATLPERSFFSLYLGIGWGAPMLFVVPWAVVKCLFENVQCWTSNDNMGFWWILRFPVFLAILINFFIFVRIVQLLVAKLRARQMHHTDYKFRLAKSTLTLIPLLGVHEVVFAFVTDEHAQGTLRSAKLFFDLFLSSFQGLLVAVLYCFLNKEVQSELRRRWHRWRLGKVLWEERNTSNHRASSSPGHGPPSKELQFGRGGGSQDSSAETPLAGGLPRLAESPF
Assay: Functional cAMP activity in the presence of 1% HSA
Format: cell-based
Conditions: read-out: cAMP Rel EC50, hGcgR
pEC50: −log10 of the molar value. Starred links: 1 amine or outer side, 2 acyl side, 3 side chain; linkers in the order of their positions; H or OH if unused. Non-standard residues stand in square brackets, D forms with d. Groups on a side chain read outwards from the residue. No end group written: not given here. *: point of attachment. C20 diacid = O=C(O)CCCCCCCCCCCCCCCCCCC(=O)*; C18 diacid = O=C(O)CCCCCCCCCCCCCCCCC(=O)*; αMePhe(2-F) = C[C@](N)(Cc1ccccc1F)C(=O)O; γGlu = O=C(O)[C@H](CCC(=O)[*:2])N[*:1]; αMe4Pal = C[C@](N)(Cc1ccncc1)C(=O)O; αMeY = C[C@](N)(Cc1ccc(O)cc1)C(=O)O; 4Pal = N[C@@H](Cc1ccncc1)C(=O)O; Aad = N[C@@H](CCCC(=O)O)C(=O)O; αMeL = CC(C)C[C@](C)(N)C(=O)O; αMeS = C[C@](N)(CO)C(=O)O; Orn = NCCC[C@H](N)C(=O)O; AEEA = NCCOCCOCC(=O)O; Aib = CC(C)(N)C(=O)O
observation-type: pEC50

- substance: "Y[Aib]QGT[αMePhe(2-F)]TSDYSILLDAQAAK([AEEA-γGlu-C20 diacid])EFIEYLIEGGPSSGEPPPSEG-NH2 [Example 351]"
  readout-value: 5.61
- substance: "Y[Aib]QGT[αMePhe(2-F)]TSD[4Pal]SILLDKK([γGlu-γGlu-C18 diacid])AQ[Aib]AFIEYL[Aad]EGGPSSGAPPPSGTGE-NH2 [Example 661]"
  readout-value: 6.80
- substance: "H-Y[Aib]QGT[αMePhe(2-F)]TSD[4Pal][αMeS]I[αMeL]LD[Orn]K([γGlu-γGlu-C18 diacid])AQ[Aib]QFI[dE][αMeY]LQEGGPSSGEPPPEGTGE-NH2 [Example 529]"
  readout-value: 6.40
- substance: "H-Y[Aib]QGTFTSD[4Pal]S[Orn][αMeL]LDKK([AEEA-γGlu-C18 diacid])AQ[αMe4Pal]AFIEYLIE[Aib]GESSGAPPPSGE-NH2 [Example 222]"
  readout-value: 6.36

Just for reference, patent US20240270821A1 is where these values come from.
